biological target: JNK1 (Homo sapiens, UniProt P45983); construct: purchased Carna Biosciences; test: JNK1 biochemical assays (one or more of: time resolved fluorescence, Z'-LYTE Cascade, radioactive); conditions: one or more of the JNK1 biochemical assays; read-out: Act. Level (JNK1 IC50 activity level)
Sequence (P45983 whole entry): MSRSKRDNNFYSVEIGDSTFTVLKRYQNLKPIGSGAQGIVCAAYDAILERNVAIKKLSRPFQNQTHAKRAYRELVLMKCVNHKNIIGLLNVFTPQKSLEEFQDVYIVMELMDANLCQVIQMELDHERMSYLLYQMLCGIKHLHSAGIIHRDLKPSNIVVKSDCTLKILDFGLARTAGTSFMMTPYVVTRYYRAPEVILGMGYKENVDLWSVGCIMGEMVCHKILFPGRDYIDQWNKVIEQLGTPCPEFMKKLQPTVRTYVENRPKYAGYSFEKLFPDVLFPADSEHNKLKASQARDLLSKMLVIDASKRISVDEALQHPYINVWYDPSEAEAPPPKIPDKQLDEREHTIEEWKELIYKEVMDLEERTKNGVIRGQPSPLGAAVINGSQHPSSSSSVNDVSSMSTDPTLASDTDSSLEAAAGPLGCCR
pIC50: −log10 of the molar value.
recorded-endpoint: pIC50

Consider the reported pIC50 for these compounds:
compound-structure | system-tested | pIC50
NC(=O)c1cnc(N[C@H]2CC[C@H](OC(F)F)CC2)nc1N[C@@H]1CCC[C@H]1CO | JNK1 (Homo sapiens, UniProt P45983) | > 6.70
NC(=O)c1cnc(N[C@H]2CC[C@H](OC3CC3)CC2)nc1NC12CC(C1)C2 | JNK1 (Homo sapiens, UniProt P45983) | > 6.70
CO[C@H]1CC[C@H](Nc2ncc(C(N)=O)c(NC3(C)CCCC3)n2)CC1 | JNK1 (Homo sapiens, UniProt P45983) | > 6.70

Prompt: Entry `CC(C)(C)Nc1nc(N[C@H]2CC[C@H](OC(F)F)CC2)ncc1C(N)=O` : reported pIC50 = ?
Response: > 6.70
